System: MES-SA/Dx5 cell line
Assay: Cytotoxicity, PrestoBlue cell viability assay, MES-SA/Dx5
Type: cell-based
Settings: Homo sapiens; MES-SA/Dx5 (Table 2b); read-out: IC50 (μM) Dx5
measurement_type: IC50 (µM)
Report the figure in µM without appending any unit label.

Form field IC50 for item COc1ccc(CNCc2cc(Br)c3cccnc3c2O)cc1OC [Example 25] on MES-SA/Dx5 cell line: 0.13

Query COc1ccc(CNCc2cc([N+](=O)[O-])c3cccnc3c2O)cc1 [Example 27] on MES-SA/Dx5 cell line; IC50 returned: 0.31

Value (IC50, MES-SA/Dx5 cell line) for record COc1ccc(CNCc2cc(Br)c3cccnc3c2O)c(OC)c1 [Example 9] = 0.12

Short answer on MES-SA/Dx5 cell line for CCN(CC)Cc1ccc2cccnc2c1O [NSC693872, 7-(N,N-diethylaminomethyl)quinolin-8-ol, reference compound] , IC50: 1.58

GET /values?item= C/C(=N\Nc1ccc2ccc(CN3CCCCC3)c(O)c2n1)c1ccccc1O [Example 4] &system= MES-SA/Dx5 cell line returns IC50: 0.16

Others:
Reported IC50 (MES-SA/Dx5 cell line) for entry COc1ccc(CNCc2cc([N+](=O)[O-])c3cccnc3c2O)c(OC)c1 [Example 28] is 0.44

* * *

Reported IC50 values are given for each entry in this list.
Test system: MES-SA/Dx5 cell line
Test: Cytotoxicity, PrestoBlue cell viability assay, MES-SA/Dx5
Assay type: cell-based
Settings: Homo sapiens; MES-SA/Dx5 (Table 2b); read-out: IC50 (μM) Dx5
Report only the number, with the unit µM understood.

Below: 4 compounds and their reported IC50.
The reported IC50 of the compound O=[N+]([O-])c1cc(C2NCCc3ccccc32)c(O)c2ncccc12 (centres unmarked) [Example 15] was 0.59

Kindly note the recorded IC50 for Oc1c(C2NCCc3ccccc32)cc(Br)c2cccnc12 (centres unmarked) [Example 14] , which is 0.13

In plain terms, COc1ccccc1CNCc1cc(Br)c2cccnc2c1O [Example 8] has a documented IC50 of 0.16

Form: compound = Cl.Oc1c(CN2CCCC2)ccc2cccnc12 [NSC693871, hydrochloride, reference compound] ; IC50 = 1.47

Please look at the following compound next.
Entry COc1ccc(CNCc2cc(Cl)c3cccnc3c2O)c(OC)c1 [Example 26] , IC50 reported as 0.13

* * *

Test system: A431 and A431-B1 cell lines
Test: Selective toxicity in A431 and A431-B1 cell lines
Format: cell-based, human
Settings: A431 versus P-gp-transfected A431-B1
Recorded Selectivity Ratio (SR) (A431/A431-B1) for the following compounds
Form rule: numeric answer, no unit written next to it.

The recorded Selectivity Ratio (SR) (A431/A431-B1) for COc1cc2c(cc1OC)C(c1cc(Cl)c3cccnc3c1O)NCC2 (centres unmarked) is 24.7

Entry COc1ccc(CNCc2cc(Cl)c3cccnc3c2O)c(OC)c1 ; Selectivity Ratio (SR) (A431/A431-B1) = 11.2

compound COc1ccc(CNCc2cc(Cl)c3cccnc3c2O)cc1 , Selectivity Ratio (SR) (A431/A431-B1) observed: 12.6

compound O=[N+]([O-])c1cc(C2NCCc3sccc32)c(O)c2ncccc12 (centres unmarked) , Selectivity Ratio (SR) (A431/A431-B1) observed: 24.7

Let's switch to this compound now.
The value of Selectivity Ratio (SR) (A431/A431-B1) measured for the compound C/C(=N\Nc1ccc2ccc(CN3CCCCC3)c(O)c2n1)c1ccccc1O turned out to be 11.7
